Values were extracted from the supplement of paper PMC10849652.

// values below are reported log2 fold change
# target-or-system: ZC3HC1 (UniProt Q86WB0)
# Sequence (Q86WB0 whole entry, looked up): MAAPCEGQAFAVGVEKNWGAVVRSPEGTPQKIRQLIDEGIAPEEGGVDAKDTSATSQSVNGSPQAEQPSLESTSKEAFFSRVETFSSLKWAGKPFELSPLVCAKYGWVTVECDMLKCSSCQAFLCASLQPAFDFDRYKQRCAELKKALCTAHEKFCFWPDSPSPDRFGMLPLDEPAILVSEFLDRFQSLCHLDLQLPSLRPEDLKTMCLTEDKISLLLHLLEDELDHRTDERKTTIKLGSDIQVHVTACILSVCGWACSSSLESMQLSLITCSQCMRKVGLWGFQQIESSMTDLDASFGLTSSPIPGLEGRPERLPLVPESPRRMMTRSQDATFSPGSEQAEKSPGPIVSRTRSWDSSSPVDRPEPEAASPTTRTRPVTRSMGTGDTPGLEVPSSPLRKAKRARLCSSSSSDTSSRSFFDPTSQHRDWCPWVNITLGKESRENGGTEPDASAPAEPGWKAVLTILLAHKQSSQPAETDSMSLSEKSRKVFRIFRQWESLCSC
# assay-procedure: log2 fold change, soluble protein after heating vs DMSO (PISA); higher = thermal stabilisation; K562 cells, 10 uM, 30 min; active = over 0.2 and 3.5 SD of the protein, either way, in both replicates (recomputed)
The full data set covers some 7,900 targets. This sample favours those with a hit. About 0.6% of all pairs of compound and target were hits.
Lab note: write the figure by itself, no unit.

Need log2 fold change of `c1cc(OCCN2CCCCC2)cc(-c2n[nH]c3ccc(-c4nnc[nH]4)cc23)c1` , thanks.
-0.046

Next: `C[C@@H](N)c1ccc(C(=O)Nc2ccnc3[nH]ccc23)cc1`
-0.213

----------
// values below are reported log2 fold change
# target-or-system: ZCCHC9 (UniProt Q8N567)
# Sequence (Q8N567 whole entry, looked up): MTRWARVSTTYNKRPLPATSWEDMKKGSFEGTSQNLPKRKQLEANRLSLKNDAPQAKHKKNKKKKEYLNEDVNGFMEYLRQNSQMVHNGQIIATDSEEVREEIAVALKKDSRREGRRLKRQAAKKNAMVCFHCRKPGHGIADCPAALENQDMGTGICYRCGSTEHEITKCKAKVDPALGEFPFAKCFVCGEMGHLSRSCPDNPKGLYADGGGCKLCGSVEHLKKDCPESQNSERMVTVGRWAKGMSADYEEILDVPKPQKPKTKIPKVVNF
# assay-procedure: log2 fold change, soluble protein after heating vs DMSO (PISA); higher = thermal stabilisation; K562 cells, 10 uM, 30 min; active = over 0.2 and 3.5 SD of the protein, either way, in both replicates (recomputed)
Of roughly 7,900 targets only a part is listed; those with a hit were picked by preference. About 0.6% of all pairs of compound and target were hits.
Lab note: write the figure by itself, no unit.

A selection of reference data follows.
Need log2 fold change of `O=C1c2ccccc2-c2n[nH]c3cccc1c23` , thanks.
-0.009

Next: `Cc1ccc(NC(=O)c2ccc(CN3CC[C@H](N(C)C)C3)c(C(F)(F)F)c2)cc1Nc1nccc(-c2cncnc2)n1`
0.144

For the next question, use this molecule.
Need log2 fold change of `CCN(CCCOc1ccc2c(Nc3cc(CC(=O)Nc4cccc(F)c4)[nH]n3)ncnc2c1)CCOP(=O)(O)O` , thanks.
-0.094

----------
# target-or-system: ZW10 (UniProt O43264)
# Sequence (O43264 whole entry, looked up): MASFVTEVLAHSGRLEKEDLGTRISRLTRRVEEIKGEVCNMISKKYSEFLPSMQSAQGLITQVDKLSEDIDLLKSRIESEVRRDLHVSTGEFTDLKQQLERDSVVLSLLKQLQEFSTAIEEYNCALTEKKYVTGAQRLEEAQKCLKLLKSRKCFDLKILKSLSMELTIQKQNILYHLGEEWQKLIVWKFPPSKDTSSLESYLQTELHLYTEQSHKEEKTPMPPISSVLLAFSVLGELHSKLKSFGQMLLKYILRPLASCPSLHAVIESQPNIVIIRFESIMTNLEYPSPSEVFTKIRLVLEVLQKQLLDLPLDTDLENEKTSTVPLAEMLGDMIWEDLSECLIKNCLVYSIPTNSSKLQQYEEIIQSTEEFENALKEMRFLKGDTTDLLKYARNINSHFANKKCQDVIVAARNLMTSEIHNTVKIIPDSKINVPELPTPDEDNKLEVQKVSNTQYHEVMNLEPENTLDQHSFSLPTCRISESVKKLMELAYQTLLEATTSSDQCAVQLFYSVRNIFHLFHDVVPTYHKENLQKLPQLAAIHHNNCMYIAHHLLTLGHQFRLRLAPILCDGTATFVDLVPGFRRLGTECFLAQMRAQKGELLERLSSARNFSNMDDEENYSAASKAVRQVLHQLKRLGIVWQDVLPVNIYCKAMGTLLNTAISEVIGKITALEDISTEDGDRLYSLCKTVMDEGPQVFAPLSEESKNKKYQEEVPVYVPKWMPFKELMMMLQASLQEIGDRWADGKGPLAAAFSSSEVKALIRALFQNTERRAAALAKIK
# assay-procedure: log2 fold change, soluble protein after heating vs DMSO (PISA); higher = thermal stabilisation; K562 cells, 10 uM, 30 min; active = over 0.2 and 3.5 SD of the protein, either way, in both replicates (recomputed)
Targets with a hit are over-represented here; the source holds about 7,900 in all. About 0.6% of all pairs of compound and target were hits.
// values below are reported log2 fold change

Need log2 fold change of Cc1cc(Nc2cc(N3CCN(C)CC3)nc(Sc3ccc(NC(=O)C4CC4)cc3)n2)n[nH]1 [tozasertib] , thanks.
0.068 (inactive)

Next: O=C(O)c1ccc2c(c1)nc(Nc1cccc(Cl)c1)c1ccncc12 [silmitasertib]
0.083 (inactive)

Others:
Need log2 fold change of `Cc1ccc2c(=O)c3ccccc3n(CCCN)c2c1C` , thanks.
0.013 (inactive)

Next: Cc1nc(Nc2ncc(C(=O)Nc3c(C)cccc3Cl)s2)cc(N2CCN(CCO)CC2)n1 [dasatinib]
-0.124 (inactive)

Next: Nc1ccccc1NC(=O)c1ccc(CNC(=O)OCc2cccnc2)cc1 [entinostat]
0.063 (inactive)

Next: C=CC(=O)N1CCC[C@@H](n2nc(-c3ccc(Oc4ccccc4)cc3)c3c(N)ncnc32)C1 [ibrutinib]
-0.007 (inactive)

Next: `COc1cc2nc(-c3cc(F)ccc3O)nc(N[C@@H]3CNC[C@H]3C(C)(C)O)c2cc1OC`
0.041 (inactive)

Next: `Cn1cc(-c2ccc3nnc(C(F)(F)c4ccc5ncccc5c4)n3n2)cn1`
-0.069 (inactive)

Next: `CC(C)c1cnn2c(NCc3ccccc3)cc(NCCCCCCN)nc12`
-0.213 (inactive)
